procedureDetails: Inhibition of alpha-glucosidase at 100 uM after 3 mins
Activity calls are given as the source filed them. The calls are words filed in the database; no cut-off is given here.
readoutLabel: inhibition

Worked cases, answers included:
molecule: CC1(C)CC(=O)C2=C(C1)NC(C(=O)O)=CC2c1ccccc1 (stereo not given)
inhibition: 4.6%
--
molecule: O=C1CCCC2=C1C(c1ccc(Cl)cc1)C=C(c1ccccc1)N2 (stereo not given)
inhibition: 27.9%
--
molecule: O=C1CCCC2=C1C(c1ccccc1)C=C(c1ccccc1)N2 (stereo not given)
inhibition: inactive
--
molecule: CC1(C)CC(=O)C2=C(C1)NC(c1ccccc1)=CC2c1ccc([N+](=O)[O-])cc1 (stereo not given)
inhibition: 22.4%
--
molecule: CC1(C)CC(=O)C2=C(C1)NC(c1ccccc1)=CC2c1ccccc1 (stereo not given)
inhibition: 34.3%
--
molecule: Cc1ccc(C2=CC(c3ccccc3)C3=C(CCCC3=O)N2)cc1 (stereo not given)
inhibition: 8.3%

# inhibition of O=C1CCCC2=C1C(c1ccc(F)cc1)C=C(c1ccccc1)N2 (stereo not given) = inactive

====

procedureDetails: Inhibition of alpha-glucosidase at 100 uM after 3 mins
Calls of active or inactive are those of the source. The rule behind the calls is not given here.
readoutLabel: inhibition

compound: COc1ccc(-c2cc(-c3ccccc3)nc3c2C(=O)CC(C)(C)C3)cc1
inhibition: inactive
--
compound: Cc1ccc(C2=CC(c3ccccc3)C3=C(CC(C)(C)CC3=O)N2)cc1 (configuration not stated)
inhibition: inactive
--
compound: CC1(C)CC(=O)C2=C(C1)NC(C(=O)O)=CC2c1ccc(F)cc1 (configuration not stated)
inhibition: 1.4%
--
compound: CC1(C)CC(=O)C2=C(C1)NC(c1ccccc1)=CC2c1ccc(Cl)cc1 (configuration not stated)
inhibition: 12.1%
--
compound: CC1(C)CC(=O)c2c(-c3ccc(Cl)cc3)cc(-c3ccccc3)nc2C1
inhibition: inactive

# inhibition of CCOC(=O)C1(O)CC(c2ccccc2)C2=C(CC(C)(C)CC2=O)O1 (configuration not stated) = inactive

# inhibition of CCOC(=O)C1(O)CC(c2ccc(OC)cc2)C2=C(CC(C)(C)CC2=O)O1 (configuration not stated) = inactive

# inhibition of CC1(C)CC(=O)C2=C(C1)NC(C(=O)O)=CC2c1ccc(Cl)cc1 (configuration not stated) = inactive

# inhibition of COc1ccc(C2C=C(C(=O)O)NC3=C2C(=O)CC(C)(C)C3)cc1 (configuration not stated) = 11.2%

# inhibition of CCOC(=O)C1(O)CC(c2ccc(Br)cc2)C2=C(CC(C)(C)CC2=O)O1 (configuration not stated) = inactive

# inhibition of CC1(C)CC(=O)C2=C(C1)NC(c1ccccc1)=CC2c1c[nH]c2ccccc12 (configuration not stated) = inactive

# inhibition of "CC1(C)CC(=O)c2c(-c3ccc(F)cc3)cc(-c3ccccc3)nc2C1" = inactive

====

procedureDetails: Inhibition of alpha-glucosidase at 100 uM after 3 mins
The source made the active and inactive calls. The rule behind the calls is not given here.
readoutLabel: inhibition

Worked cases, answers included:
compound: COc1ccc(C2C=C(c3ccccc3)NC3=C2C(=O)CC(C)(C)C3)cc1 (stereo not given)
inhibition: inactive
--
compound: CC1(C)CC(=O)C2=C(C1)NC(c1ccccc1)=CC2c1ccco1 (stereo not given)
inhibition: inactive
--
compound: CC1(C)CC(=O)C2=C(C1)NC(C(=O)O)=CC2c1ccc(Br)cc1 (stereo not given)
inhibition: inactive
--
compound: CC1(C)CC(=O)C2=C(C1)NC(c1ccccc1)=CC2c1ccc(F)cc1 (stereo not given)
inhibition: inactive

Here's the next entry for you.
# inhibition of COc1ccc(C2C=C(c3ccccc3)NC3=C2C(=O)CCC3)cc1 (stereo not given) = 7.3%

====

Test system: Rattus norvegicus
procedureDetails: Antihyperglycemic activity in Charles Foster-Wistar albino rat sucrose loaded model assessed as decrease of blood glucose level at 100 mg/kg, po administered 30 mins before glucose challenge measured up to 120 mins by glucometer
Assay type: functional
settings: Sprague-Dawley albino, in the assay text read “Sprague-Dawley” for “Charles Foster-Wistar”
Calls of active or inactive are those of the source. The calls are words filed in the database; no cut-off is given here.
readoutLabel: Activity

molecule: CC1(C)CC(=O)c2c(-c3ccc(Cl)cc3)cc(-c3ccccc3)nc2C1
Activity: inactive
--
molecule: CCOC(=O)C1(O)CC(c2ccc(Br)cc2)C2=C(CC(C)(C)CC2=O)O1 (configuration not stated)
Activity: inactive
--
molecule: CCOC(=O)C1(O)CC(c2ccccc2)C2=C(CC(C)(C)CC2=O)O1 (configuration not stated)
Activity: inactive
--
molecule: CCOC(=O)C1(O)CC(c2ccc(OC)cc2)C2=C(CC(C)(C)CC2=O)O1 (configuration not stated)
Activity: inactive

# Activity of "COc1ccc(-c2cc(-c3ccccc3)nc3c2C(=O)CC(C)(C)C3)cc1" = inactive

# Activity of CCOC(=O)C1(O)CC(c2ccc(Cl)cc2)C2=C(CC(C)(C)CC2=O)O1 (configuration not stated) = inactive

# Activity of "CC1(C)CC(=O)c2c(-c3ccc(F)cc3)cc(-c3ccccc3)nc2C1" = inactive

====

Tested on: Rattus norvegicus
procedureDetails: Antidyslipidemic activity in Charles Foster rat assessed as reduction of Triton WR-1339-induced increase of blood triglyceride level at 100 mg/kg, po after 18 hrs
Format: functional
Set-up: scale not given: the % may be the effect or the level left
Response key: rule met means Activity >= -10%; rule not met means Activity < -10%.

These recorded examples may help you get a feel for the data.
compound: O=C1CCCC2=C1C(c1ccc(Cl)cc1)C=C(c1ccccc1)N2 (centres undefined)
label: rule met
--
compound: CC1(C)CC(=O)C2=C(C1)NC(c1ccccc1)=CC2c1ccc(Cl)cc1 (centres undefined)
label: rule not met
--
compound: CC1(C)CC(=O)C2=C(C1)NC(c1ccccc1)=CC2c1ccc(F)cc1 (centres undefined)
label: rule not met
--
compound: CC1(C)CC(=O)C2=C(C1)NC(C(=O)O)=CC2c1ccc(Cl)cc1 (centres undefined)
label: rule not met
--
compound: CCOC(=O)C1(O)CC(c2ccc(F)cc2)C2=C(CC(C)(C)CC2=O)O1 (centres undefined)
label: rule met

Task item: Given the entry CC1(C)CC(=O)C2=C(C1)NC(c1ccccc1)=CC2c1ccccc1 (centres undefined) , answer whether its Activity meets or surpasses -10%.
Reply: rule not met

Task item: Given the entry Cc1ccc(C)c(OCCCC(C)(C)C(=O)O)c1 [GEMFIBROZIL] , answer whether its Activity meets or surpasses -10%.
Reply: rule not met

Task item: Given the entry COc1ccc(C2C=C(C(=O)O)NC3=C2C(=O)CC(C)(C)C3)cc1 (centres undefined) , answer whether its Activity meets or surpasses -10%.
Reply: rule not met

Task item: Given the entry CC1(C)CC(=O)C2=C(C1)NC(C(=O)O)=CC2c1ccccc1 (centres undefined) , answer whether its Activity meets or surpasses -10%.
Reply: rule not met

====

Examples of molecules with documented Activity follow.
Test system: Rattus norvegicus
procedureDetails: Antihyperglycemic activity in Charles Foster-Wistar albino rat sucrose loaded model assessed as decrease of blood glucose level at 100 mg/kg, po administered 30 mins before glucose challenge measured up to 120 mins by glucometer
Format: functional
Design: scale not given: the % may be the effect or the level left
settings: in the assay text read “Sprague-Dawley” for “Charles Foster-Wistar”
Express it in %; write the number only.

molecule: CC1(C)CC(=O)C2=C(C1)NC(C(=O)O)=CC2c1ccc(Cl)cc1 (configuration not stated)
testedOn: Rattus norvegicus
unitSpec: %
observedValue: 13.7

Here's the next entry for you.
# Activity of Cc1ccc(C2=CC(c3ccccc3)C3=C(CC(C)(C)CC3=O)N2)cc1 (configuration not stated) = 11.4

====

testedOn: Glucose-6-phosphatase catalytic subunit 1 (Homo sapiens)
procedureDetails: Inhibition of glucose-6-phosphatase assessed as inositol phosphate release at 100 uM after 30 mins
settings: in the assay text read “inorganic phosphate” for “inositol phosphate”
Activity calls are given as the source filed them. The calls are words filed in the database; no cut-off is given here.
readoutLabel: inhibition

Worked cases, answers included:
compound: COc1ccc(C2C=C(c3ccccc3)NC3=C2C(=O)CC(C)(C)C3)cc1 (stereo unspecified)
inhibition: inactive

compound: CC1(C)CC(=O)C2=C(C1)NC(c1ccccc1)=CC2c1ccc([N+](=O)[O-])cc1 (stereo unspecified)
inhibition: inactive

compound: CC1(C)CC(=O)C2=C(C1)NC(C(=O)O)=CC2c1ccc(Br)cc1 (stereo unspecified)
inhibition: inactive

compound: COc1ccc(-c2cc(-c3ccccc3)nc3c2C(=O)CC(C)(C)C3)cc1
inhibition: inactive

compound: CC1(C)CC(=O)C2=C(C1)NC(c1ccccc1)=CC2c1c[nH]c2ccccc12 (stereo unspecified)
inhibition: 26.7%

# inhibition of CCOC(=O)C1=CC(c2ccc(Br)cc2)C2=C(CC(C)(C)CC2=O)N1 (stereo unspecified) = inactive

# inhibition of CCOC(=O)C1=CC(c2ccc(Cl)cc2)C2=C(CC(C)(C)CC2=O)N1 (stereo unspecified) = 11.3%

# inhibition of CC1(C)CC(=O)C2=C(C1)NC(c1ccccc1)=CC2c1ccco1 (stereo unspecified) = 11.4%

# inhibition of CCOC(=O)C1(O)CC(c2ccc(OC)cc2)C2=C(CC(C)(C)CC2=O)O1 (stereo unspecified) = inactive

# inhibition of COc1ccc(C2=CC(c3ccccc3)C3=C(CC(C)(C)CC3=O)N2)cc1 (stereo unspecified) = 8.34%

# inhibition of CCOC(=O)C1=CC(c2ccccc2)C2=C(CC(C)(C)CC2=O)N1 (stereo unspecified) = inactive
